Target: Active human recombinant ROCK II (N-terminal His6-tagged recombinant human ROCK-II residues 11-552) (Homo sapiens, UniProt O75116)
Construct: recombinant human ROCK-II residues 11-552; His6 (N)
Sequence (O75116 11-552): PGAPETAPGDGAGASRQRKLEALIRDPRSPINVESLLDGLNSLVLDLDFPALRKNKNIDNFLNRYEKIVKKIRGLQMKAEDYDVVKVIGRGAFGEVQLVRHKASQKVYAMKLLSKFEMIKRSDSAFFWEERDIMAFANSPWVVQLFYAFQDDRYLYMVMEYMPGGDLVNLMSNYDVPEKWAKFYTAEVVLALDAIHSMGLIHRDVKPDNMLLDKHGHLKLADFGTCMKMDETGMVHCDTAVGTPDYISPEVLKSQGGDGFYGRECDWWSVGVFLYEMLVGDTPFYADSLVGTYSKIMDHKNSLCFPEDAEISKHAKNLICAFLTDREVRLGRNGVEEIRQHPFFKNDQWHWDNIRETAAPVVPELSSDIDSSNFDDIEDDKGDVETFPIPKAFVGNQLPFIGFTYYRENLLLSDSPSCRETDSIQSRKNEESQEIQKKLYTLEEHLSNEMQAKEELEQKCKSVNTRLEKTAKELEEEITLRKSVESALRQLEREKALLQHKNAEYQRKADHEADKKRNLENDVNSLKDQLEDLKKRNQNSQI
Assay: Determination of Rho Kinase Inhibition (Caliper peptide phosphorylation assay)
Details: Fluorescein-AKRRRLSSLRA-COOH substrate and ATP, 60 min incubation at 32° C., respective form (salt or free base) obtained as in the examples
outcomeMeasure: IC50

{"columns": ["compound", "IC50"],
 "data": [
  ["CCC[C@]1(N)CCC[C@H](Oc2cc3cc[nH]c(=O)c3cc2Cl)CCC1 (single isomer, unassigned)", "≤ 1000 nM"],
  ["O=C(CCC1CCNCC1)N[C@H]1CC[C@@H](Oc2cc3cc[nH]c(=O)c3cc2Cl)CC1", "≤ 1000 nM"],
  ["N[C@H]1CCC[C@@H](Oc2cc3cc[nH]c(=O)c3cc2Cl)CC1 (relative stereo)", "≤ 1000 nM"]
]}

Look up IC50 of Cc1cc2c(=O)[nH]ccc2cc1O[C@H]1CC[C@H](NC(=O)CCC2CCNCC2)CC1 and report it.
1000 to 10000 nM

Look up IC50 of O=c1[nH]ccc2cc(O[C@H]3CC[C@@H](N4CCCC4)CC3)c(Cl)cc12 and report it.
≤ 1000 nM
